Biological target: T1, human amylin-3 (a) receptor (human, UniProt P30988 25-474; O60896 24-148)
T1 sequence (looked up) 1: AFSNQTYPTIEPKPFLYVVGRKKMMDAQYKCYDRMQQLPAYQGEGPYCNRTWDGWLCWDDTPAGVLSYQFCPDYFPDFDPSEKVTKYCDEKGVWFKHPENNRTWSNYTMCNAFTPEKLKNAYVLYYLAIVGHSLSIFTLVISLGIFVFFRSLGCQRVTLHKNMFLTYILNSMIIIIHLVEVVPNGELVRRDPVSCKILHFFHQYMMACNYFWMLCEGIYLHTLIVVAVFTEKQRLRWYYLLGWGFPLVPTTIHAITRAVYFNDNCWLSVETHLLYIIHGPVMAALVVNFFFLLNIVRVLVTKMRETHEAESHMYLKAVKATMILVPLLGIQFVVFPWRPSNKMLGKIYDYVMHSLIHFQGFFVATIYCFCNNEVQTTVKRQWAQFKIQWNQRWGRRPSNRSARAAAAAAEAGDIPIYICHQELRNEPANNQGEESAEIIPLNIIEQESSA
T1 sequence (looked up) 2: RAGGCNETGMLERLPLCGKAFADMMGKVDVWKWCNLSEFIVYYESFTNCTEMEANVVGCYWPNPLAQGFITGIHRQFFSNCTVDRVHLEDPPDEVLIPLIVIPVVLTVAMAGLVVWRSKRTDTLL
Experiment: cell-based or functional assay
Starred links: 1 amine or outer side, 2 acyl side, 3 side chain; linkers in the order of their positions; H or OH if unused. Non-standard residues stand in square brackets, D forms with d. Groups on a side chain read outwards from the residue. *: point of attachment. Butyryl(4-SO2NHCO(CH2)16Tz) = O=C(CCCCCCCCCCCCCCCCc1nnn[nH]1)NS(=O)(=O)CCCC(=O)*; C16 diacid = O=C(O)CCCCCCCCCCCCCCC(=O)*; γGlu = O=C(O)[C@H](CCC(=O)[*:2])N[*:1]; AEEA = NCCOCCOCC(=O)O; Aib = CC(C)(N)C(=O)O
Items are presented alongside their recorded Human AmyR3 potency [EC50 (pM)].
measurement type: Human AmyR3 potency [EC50 (pM)]

{"binder": "Compound 0285 (peptide) peptide: H[Aib]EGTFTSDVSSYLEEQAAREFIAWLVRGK([AEEA-AEEA-γGlu-C16 diacid])GGGGGEASELSTAALGRLSAELHELATLPRTETGK([AEEA-AEEA-γGlu-C16 diacid])GSP-NH2", "measurement type": "Human AmyR3 potency [EC50 (pM)]", "measured number": 78.9}
{"binder": "Compound 0146 (peptide) peptide: H[Aib]EGTFTSDVSSYLEEQAAREFIEWLVRGK(Butyryl(4-SO2NHCO(CH2)16Tz))GGGASELSTAALGRLSAELHELATLPRTETGSGSP-NH2", "measurement type": "Human AmyR3 potency [EC50 (pM)]", "measured number": 14}

Data origin: patent US20260132182A1
